# Test system: Zta promoter
# Type: cell-based, Epstein-Barr virus
# Experimental Conditions: AGS cells
Reported Metric: Zta promoter luciferase activity

| Compound | Measurement Target | Reported Metric | Test Value |
| --- | --- | --- | --- |
| CCCC(=O)O [butyrate] | Zta promoter | Zta promoter luciferase activity | activated |
| CCCCCCCCCCCCCC(=O)O[C@@H]1[C@@H](C)[C@@]2(O)[C@@H](C=C(CO)C[C@]3(O)C(=O)C(C)=C[C@@H]23)[C@@H]2C(C)(C)[C@]12OC(C)=O [TPA, phorbol 12-tetradecanoate 13-acetate] | Zta promoter | Zta promoter luciferase activity | activated |
| CCCC(CCC)C(=O)O [valproate] | Zta promoter | Zta promoter luciferase activity | activated |
